Here, each record is paired with measured IC50 of inhibition of MCT1 mediated transport (bromopyruvate assay, HEK293T cells) data.
Biological target: T1, human monocarboxylate transporter 1 (MCT1) (human, UniProt P53985 1-500)
T1 sequence: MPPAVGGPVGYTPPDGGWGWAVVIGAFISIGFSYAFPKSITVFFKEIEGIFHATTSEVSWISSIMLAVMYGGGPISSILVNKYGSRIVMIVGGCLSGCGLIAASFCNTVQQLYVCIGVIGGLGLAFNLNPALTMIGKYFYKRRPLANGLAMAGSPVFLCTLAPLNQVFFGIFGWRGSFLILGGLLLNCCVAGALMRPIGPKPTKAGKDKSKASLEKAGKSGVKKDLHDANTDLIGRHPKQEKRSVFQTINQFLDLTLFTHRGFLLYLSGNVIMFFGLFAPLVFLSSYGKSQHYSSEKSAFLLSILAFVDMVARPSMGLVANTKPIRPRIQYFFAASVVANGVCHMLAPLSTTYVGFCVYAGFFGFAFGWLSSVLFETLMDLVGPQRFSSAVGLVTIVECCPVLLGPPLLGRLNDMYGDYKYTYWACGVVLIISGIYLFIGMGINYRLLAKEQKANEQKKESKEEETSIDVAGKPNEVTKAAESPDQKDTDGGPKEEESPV
Assay: cell-based or functional assay
// return numeric value only (unit: nM, not printed)

anti-human MCT1 antibody Ab12 (antibody, human IgG1, kappa, V domains shown, IgG1EN backbone) VH: QVQLVQSGAEVKKPGASVKVSCTVSGRSLTNYHLVWVRQAPGQGLEWMGFIRSSGNTEYNSEFKSRVTMTRDTSTSTVYMELSSLRSEDTAVYYCARNRWYHGTYYSPGYYVMDAWGQGTLVTVSS VL: EIVLTQSPGTLSLSPGERATLSCKGSQNIENYLAWYQQKPGQAPRLLIYNRHNLQTGIPDRFSGSGSGTDFTLTISRLEPEDFAVYYCYQYSDGYTFGGGTKVEIKR; 39

Inquiry: Consider the binder anti-human MCT1 antibody Ab10 (antibody, human IgG1, kappa, V domains shown, IgG1EN backbone) VH: QVQLVQSGAEVKKPGASVKVSCTVSGRSLTGYHLQWVRQAPGQGLEWMGFIRSSGNTEYNSEFKSRVTMTRDTSTSTVYMELSSLRSEDTAVYYCARNRWYHGTYYSPGYYVMDAWGQGTLVTVSS VL: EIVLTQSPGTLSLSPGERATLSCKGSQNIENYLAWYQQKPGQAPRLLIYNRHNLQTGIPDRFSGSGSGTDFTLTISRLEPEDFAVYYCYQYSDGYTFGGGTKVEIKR and give its measured IC50 of inhibition of MCT1 mediated transport (bromopyruvate assay, HEK293T cells).
Reply text: 39
